assayedSystem: Acetyl-CoA Synthetase (Mus musculus, UniProt Q9QXG4)
Construct: gm wet tissue/30 min; from tissue
Sequence (Q9QXG4 whole entry): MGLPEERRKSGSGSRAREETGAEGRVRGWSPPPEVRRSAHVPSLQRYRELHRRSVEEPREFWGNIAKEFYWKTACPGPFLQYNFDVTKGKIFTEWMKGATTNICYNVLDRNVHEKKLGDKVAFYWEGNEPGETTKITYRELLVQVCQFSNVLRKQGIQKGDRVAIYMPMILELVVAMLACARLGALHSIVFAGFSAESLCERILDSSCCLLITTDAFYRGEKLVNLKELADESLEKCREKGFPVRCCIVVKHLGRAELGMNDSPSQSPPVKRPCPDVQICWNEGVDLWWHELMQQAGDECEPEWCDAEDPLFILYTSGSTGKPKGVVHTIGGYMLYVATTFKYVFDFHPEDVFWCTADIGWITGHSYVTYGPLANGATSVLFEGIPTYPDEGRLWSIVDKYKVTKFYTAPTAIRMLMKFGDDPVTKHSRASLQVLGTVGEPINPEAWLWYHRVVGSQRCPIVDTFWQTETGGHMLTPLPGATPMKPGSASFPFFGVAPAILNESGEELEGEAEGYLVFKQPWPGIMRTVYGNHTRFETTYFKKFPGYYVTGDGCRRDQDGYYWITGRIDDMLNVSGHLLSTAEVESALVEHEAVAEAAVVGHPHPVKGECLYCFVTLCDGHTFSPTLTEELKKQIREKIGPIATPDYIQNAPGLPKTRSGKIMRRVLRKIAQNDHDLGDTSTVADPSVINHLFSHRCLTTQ
testDetails: In vitro acetyl coenzyme A synthetase activity (method of Goodridge)
Format: biochemical, mice
experimentalContext: Table 3, N = 6, control 10.8 mg/g wet tissue
propertyName: in vitro AcCoA synthetase (% Control)

INSERT INTO measurements (compound, propertyname, unitannotation, numericvalue) VALUES
  ('CCCCN1C(=O)c2ccccc2C1=O [N--n-Butylphthalimide]', 'in vitro AcCoA synthetase', '% Control', 82),
  ('CC(=O)CCN1C(=O)c2ccccc2C1=O [1-N--Phthalimidobutan-3-one]', 'in vitro AcCoA synthetase', '% Control', 53),
  ('CN1C(=O)c2ccccc2C1=O [N--methylphthalimide]', 'in vitro AcCoA synthetase', '% Control', 66),
  ('CCCN1C(=O)c2ccccc2C1=O [N--n-propylphthalimide]', 'in vitro AcCoA synthetase', '% Control', 67);
